Tested on: MCF7
Method: NCI tumour cell line growth inhibition, 48 h
Activity calls are given as the source filed them. No stated cut-off is given here; in the data, active = GI50 up to about 1.1 µM and inactive = higher.
Valid outcomes are listed here; reply with one: active, inactive

Examples from the recorded data:
Molecule	Experimental system	Assigned label
CC(C)=CCC[C@]1(C)C=Cc2c(O)c3c(c(CC=C(C)C)c2O1)O[C@]12C(=C[C@@H]4CC1C(C)(C)O[C@@]2(C/C=C(/C)C(=O)O)C4=O)C3=O	MCF7	active
Cc1ccc([N+](=O)[O-])cc1S(=O)(=O)Nc1ccc(C2=NN(c3ccc([N+](=O)[O-])cc3[N+](=O)[O-])C(c3cccs3)C2)cc1 (stereo not drawn)	MCF7	inactive

Now take the following molecule into account.
// return assay outcome for "COC(=O)c1ccc(/C=C(\c2ccc([N+](=O)[O-])o2)S(=O)(=O)c2ccc(NC(C)=O)cc2)o1" inactive

###

Tested on: EKVX
Method: NCI tumour cell line growth inhibition, 48 h
The source made the active and inactive calls. No stated cut-off is given here; in the data, active = GI50 up to about 1.1 µM and inactive = higher.
Reported endpoint: GI50

Entry "Nn1c(Cc2ccccc2)n[nH]c1=O" has what GI50? > 100 µM (inactive)

Entry "Cc1ccc(Nc2nc(C)c(C(=O)CC(=O)C(=O)Nc3ccc(Cl)cc3)s2)cc1" has what GI50? > 100 µM (inactive)

Entry COc1ccc(C(CC(=O)c2ccc3c(c2)OCO3)c2c(O)oc3ccccc3c2=O)cc1OC (stereo unspecified) has what GI50? > 100 µM (inactive)

Entry OC(c1ccoc1)c1cc2ccccc2s1 (stereo unspecified) has what GI50? > 10 µM (inactive)

Entry "O=C(Nc1ccc(Cl)cc1C(=O)O)c1ccc([N+](=O)[O-])cc1" has what GI50? 29.5 µM (inactive)

Entry "COc1ccc(C2=C3SC=c4ccccc4=C3ON=C2c2ccccc2)cc1" has what GI50? > 100 µM (inactive)

###

Test system: BT-549
Method: NCI tumour cell line growth inhibition, 48 h
Active and inactive are the calls of the source. No stated cut-off is given here; in the data, active = GI50 up to about 1.1 µM and inactive = higher. Where a SMILES comes first, the peptide text is derived from it. The star is where a group is joined. Cbz = O=C(OCc1ccccc1)*; Bn = c1ccc(C*)cc1
Valid outcomes are listed here; reply with one: yes = active, no = inactive

Compound	Assigned label
COc1cc(/C=N/c2nc3cc4sc(/N=C/c5cc(OC)c(OC)c(OC)c5)nc4cc3s2)cc(OC)c1OC	no

// return assay outcome for "CCOC(=O)c1ccc(-c2cccs2)[nH]1" no

// return assay outcome for COC(=O)C(Cc1ccc(O)cc1)NC(=O)C(COCc1ccccc1)NC(=O)OCc1ccccc1 (stereo not given) (Cbz-Ser(Bn)-Tyr-OMe; configuration not given here) no

###

// GI50 lookup, one value per entry
Test system: HL-60
Method: NCI tumour cell line growth inhibition, 48 h
Active and inactive are the calls of the source. No stated cut-off is given here; in the data, active = GI50 up to about 1.1 µM and inactive = higher.

Molecule	GI50
CCOC(=O)CC1=N/C(=N/c2cc(Cl)ccc2Cl)SC1	> 100 µM (inactive)
N=C(N)NC(=N)Nc1ccc(S(N)(=O)=O)cc1	> 100 µM (inactive)
COc1cc(C2c3cc(OC)c(OC)c(O)c3C(=O)C3CCC(=O)N32)cc(OC)c1OC (stereo unspecified)	26.4 µM (inactive)
CCOc1ccc(/N=N/c2ccc3oc(=O)c(C(=O)Nc4ccc(OC)cc4)cc3c2)cc1	2.88 µM (inactive)

Entry CC1(C)C[C@H]2C=C(C=O)[C@]34C[C@]3(C(=O)OC4O)[C@H]2C1 (stereo partly specified) has what GI50? 1.92 µM (inactive)

Entry O=C(CC(C(=O)c1cccs1)c1cccs1)c1ccsc1 (stereo unspecified) has what GI50? 29 µM (inactive)

Values were extracted from ChEMBL document CHEMBL1201862.
